experiment: Wnt pathway potentiators raising nuclear beta-catenin – imaging, WNT3A-conditioned medium, mouse C2C12, NPC library, primary screen (AID 1117326); details: stimulation, at 2 µM, stronger effect = higher value; also: reference of the scale not given here
# nuclear beta-catenin stimulation annotations
Write the number in % without appending the unit.

Field: example entries. Status: answers known.
C[C@H]1COc2c(C3(N)CC3)c(F)cc3c(=O)c(C(=O)O)cn1c23 | 0.2
NC(N)=NCCN1CCCCCCC1 | -0.3
CC(=O)Oc1ccccc1C(=O)O | 0.2
S=P(N1CC1)(N1CC1)N1CC1 | -0.3
CCCCc1nc(Cl)c(CO)n1Cc1ccc(-c2ccccc2-c2nn[nH]n2)cc1 | 2.1

INPUT: Return nuclear beta-catenin stimulation (reported value) for this molecule: O=C(O)/C=C(\CC(=O)O)C(=O)O
OUTPUT: -0.6

INPUT: Return nuclear beta-catenin stimulation (reported value) for this molecule: Nc1nnc(-c2cccc(Cl)c2Cl)c(N)n1
OUTPUT: 0.5

INPUT: Return nuclear beta-catenin stimulation (reported value) for this molecule: COc1cc2c3cc1Oc1cc(ccc1O)C[C@@H]1c4c(cc(OC)c(O)c4Oc4ccc(cc4)C[C@@H]3N(C)CC2)CC[N+]1(C)C
OUTPUT: -0.1

INPUT: Return nuclear beta-catenin stimulation (reported value) for this molecule: CCOC(N)=O
OUTPUT: 7.1

INPUT: Return nuclear beta-catenin stimulation (reported value) for this molecule: NS(=O)(=O)c1cc2c(cc1Cl)NC(C(Cl)Cl)NS2(=O)=O (centres undefined)
OUTPUT: -0.1

INPUT: Return nuclear beta-catenin stimulation (reported value) for this molecule: NS(=O)(=O)c1cc2c(cc1Cl)NC(C1CC3C=CC1C3)NS2(=O)=O (centres undefined)
OUTPUT: 0

INPUT: Return nuclear beta-catenin stimulation (reported value) for this molecule: CCCCCCCCCCCCCCCCCCOCC(O)CO (centres undefined)
OUTPUT: 2.8

INPUT: Return nuclear beta-catenin stimulation (reported value) for this molecule: O=C1CC2(CCCC2)CC(=O)N1CCCCN1CCN(c2ncccn2)CC1
OUTPUT: 2.6

INPUT: Return nuclear beta-catenin stimulation (reported value) for this molecule: Nc1ccc(S(=O)(=O)Nc2ccccn2)cc1
OUTPUT: 1

INPUT: Return nuclear beta-catenin stimulation (reported value) for this molecule: O=C(O)c1ccc(S(=O)(=O)N(Cl)Cl)cc1
OUTPUT: 1.7

INPUT: Return nuclear beta-catenin stimulation (reported value) for this molecule: CCCCCCCCCCCCCCCCC(C(=O)O)C(O)(CC(=O)O)C(=O)O (centres undefined)
OUTPUT: -0.6
